test_target: NAMPT (Homo sapiens, UniProt P43490)
Construct: purchased Abcam ab221819
Sequence (P43490 whole entry): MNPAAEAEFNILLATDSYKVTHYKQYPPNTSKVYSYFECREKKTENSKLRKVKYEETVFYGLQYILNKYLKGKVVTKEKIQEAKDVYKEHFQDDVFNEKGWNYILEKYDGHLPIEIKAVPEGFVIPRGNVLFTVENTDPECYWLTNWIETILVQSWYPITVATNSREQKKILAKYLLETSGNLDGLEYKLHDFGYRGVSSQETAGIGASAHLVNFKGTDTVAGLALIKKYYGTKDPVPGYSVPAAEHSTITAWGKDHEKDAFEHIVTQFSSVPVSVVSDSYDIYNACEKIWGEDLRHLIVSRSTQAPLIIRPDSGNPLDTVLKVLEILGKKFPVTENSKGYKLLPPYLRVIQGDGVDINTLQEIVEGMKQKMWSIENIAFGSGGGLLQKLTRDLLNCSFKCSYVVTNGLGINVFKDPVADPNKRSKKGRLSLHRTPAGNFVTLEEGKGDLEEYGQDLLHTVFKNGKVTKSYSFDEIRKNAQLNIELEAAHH
protocol_summary: NAMPT Activity Assay (Abcam #ab221819)
Type: biochemical
condition_info: purified NAMPT, two-step reaction, OD450 nm; percent inhibition vs no drug; compound concentration not stated
value_kind: NAMPT Inhibition Code

Guide cases for NAMPT Inhibition Code, answers given:
CC(=O)N(c1ccc(-c2ccc(C(=O)NCc3cccnc3)cn2)cc1Cl)C(C)C ... C (C = ≥66% inhibition)
CC(=O)N(CC1COC1)c1ccc(-c2ccc(C(=O)NCc3cccnc3C)cn2)cc1C ... A (A = <33% inhibition)
CC(=O)N(CC1CC1)c1ccc(-c2ccc(C(=O)Nc3ccn4ccnc4c3)cn2)cc1Cl ... A (A = <33% inhibition)
CC(=O)N(CC1CC1)c1ccc(-c2ccc(C(=O)Nc3cccnc3)cn2)cc1Cl ... C (C = ≥66% inhibition)

Please look at the following molecule next.
Give the measured NAMPT Inhibition Code of "CC(=O)N(CC1CC1)c1ccc(-c2ccc(C(=O)NCc3ccccn3)cn2)cc1Cl" .
A (A = <33% inhibition)

* * *

test_target: NAMPT (Homo sapiens)
Construct: purchased Abcam ab221819
protocol_summary: NAMPT Activity Assay (Abcam #ab221819)
Format: biochemical
condition_info: purified NAMPT, two-step reaction, OD450 nm; percent inhibition vs no drug; compound concentration not stated
value_kind: NAMPT Inhibition Code

Would you please look over these solved cases?
CC(=O)N(C)c1ccc(-c2ccc(C(=O)NCc3cccnc3C)cn2)cc1C(F)(F)F ... A (A = <33% inhibition)
CC(=O)N(CC1CC1)c1ccc(-c2ccc(C(=O)NCc3cncc(F)c3)cn2)cc1Cl ... C (C = ≥66% inhibition)
COC(=O)c1cc(-c2ccc(C(=O)NCc3cccnc3)cn2)ccc1N(C)C(C)=O ... C (C = ≥66% inhibition)
CC(=O)N(CC1CC(F)(F)C1)c1ccc(-c2ccc(C(=O)NCc3cccnc3C)cn2)cc1 ... A (A = <33% inhibition)
CC(=O)N(C)c1ccc(-c2ccc(C(=O)NCc3cccnc3C)cn2)cc1C#N ... A (A = <33% inhibition)
CCOC(=O)NCCC(=O)N(C)c1ccc(-c2ccc(C(=O)NCc3cccnc3C)cn2)cc1C ... A (A = <33% inhibition)

Please turn your attention to the following entry.
// NAMPT Inhibition Code lookup, key: "CC(=O)N(c1ccc(-c2ccc(C(=O)NCc3cccnc3)cn2)cc1F)C(C)C"
C (C = ≥66% inhibition)

* * *

test_target: NAMPT (Homo sapiens, UniProt P43490)
Construct: purchased Abcam ab221819
protocol_summary: NAMPT Activity Assay (Abcam #ab221819)
Assay type: biochemical
condition_info: purified NAMPT, two-step reaction, OD450 nm; percent inhibition vs no drug; compound concentration not stated
value_kind: NAMPT Inhibition Code

CC(=O)N(CC1CCC1)c1ccc(-c2ccc(C(=O)NCc3cccnc3)cn2)cc1 ... C (C = ≥66% inhibition)
CCC(=O)N(C)c1ccc(-c2ccc(C(=O)NCc3ccc(Cl)nc3)cn2)cc1 ... C (C = ≥66% inhibition)
CC(=O)N(CC(F)F)c1ccc(-c2ccc(C(=O)NCc3cccnc3)cn2)cc1Cl ... C (C = ≥66% inhibition)

* * *

test_target: NAMPT (Homo sapiens, UniProt P43490)
Construct: purchased Abcam ab221819
protocol_summary: NAMPT Activity Assay (Abcam #ab221819)
Type: biochemical
condition_info: purified NAMPT, two-step reaction, OD450 nm; percent inhibition vs no drug; compound concentration not stated
value_kind: NAMPT Inhibition Code

Some solved entries appear below for comparison.
CC(=O)N(CC1COC1)c1ccc(-c2ccc(C(=O)NCc3cccnc3)cn2)cc1 [Compound I-447] ... A (A = <33% inhibition)
CCC(=O)N(C)c1ccc(-c2ccc(C(=O)NCc3cccnc3C(F)(F)F)cn2)cc1C [Compound I-511] ... A (A = <33% inhibition)
CC(=O)N(CC1CC1)c1ccc(-c2ccc(C(=O)NCc3ccc(Cl)nc3)cn2)cc1Cl [Compound I-689] ... C (C = ≥66% inhibition)
Cc1cc(-c2ccc(C(=O)NCc3cccnc3)cn2)ccc1N(C(=O)C(F)F)C(C)C [Compound I-595] ... C (C = ≥66% inhibition)
CC(=O)CC(=O)N(c1ccc(-c2ccc(C(=O)NCc3cccnc3C)cn2)cc1C)C(C)C [Compound I-497] ... A (A = <33% inhibition)

Look at this compound and give its reported NAMPT Inhibition Code. CC(=O)N(CC1CC1)c1ccc(-c2ccc(C(=O)NCc3ccc(C)nc3)cn2)cc1Cl [Compound I-697]
C (C = ≥66% inhibition)

Requested field: NAMPT Inhibition Code. Item: CC(=O)N(CC1CC1)c1ccc(-c2ccc(C(=O)NCc3cccnc3)cn2)cc1C [Compound I-609]
C (C = ≥66% inhibition)

Look at this compound and give its reported NAMPT Inhibition Code. CCc1cc(-c2ccc(C(=O)NCc3cccnc3C)cn2)ccc1N(C)C(C)=O [Compound I-445]
A (A = <33% inhibition)

Could you tell me which NAMPT Inhibition Code is on file for CC(=O)N(CC1CC1)c1ccc(-c2ccc(C(=O)NCc3cccnc3C)cn2)cc1 [Compound I-500] ?
A (A = <33% inhibition)

* * *

test_target: NAMPT (Homo sapiens)
Construct: purchased Abcam ab221819
protocol_summary: NAMPT Activity Assay (Abcam #ab221819)
Assay type: biochemical
condition_info: purified NAMPT, two-step reaction, OD450 nm; percent inhibition vs no drug; compound concentration not stated
value_kind: NAMPT Inhibition Code

Known results for compounds:
CC(=O)N(CC1CC1)c1ccc(-c2ccc(C(=O)NCc3cccnc3C)cn2)cc1C [Compound I-488] ... A (A = <33% inhibition)
CCC(=O)Nc1ccc(-c2ccc(C(=O)NCc3cccnc3)cn2)cc1 [Compound I-354] ... A (A = <33% inhibition)
CC(=O)N(c1ccc(-c2ccc(C(=O)NCc3cccnc3)cn2)cc1C)C(C)C [Compound I-495] ... C (C = ≥66% inhibition)
CC(=O)N(CC1CC(F)(F)C1)c1ccc(-c2ccc(C(=O)NCc3cccnc3C)cn2)cc1C [Compound I-485] ... A (A = <33% inhibition)
CCC(=O)N(C)c1ccc(-c2ccc(C(=O)Nc3cccnc3)cn2)cc1 [Compound I-353] ... C (C = ≥66% inhibition)

Which NAMPT Inhibition Code reading was recorded for the compound CC(=O)N(CC(C)C)c1ccc(-c2ccc(C(=O)NCc3cccnc3)cn2)cc1C [Compound I-594] ?
C (C = ≥66% inhibition)

What NAMPT Inhibition Code value was documented for this compound, COC(=O)NCCN(C(C)=O)c1ccc(-c2ccc(C(=O)NCc3cccnc3)cn2)cc1 [Compound I-466] ?
A (A = <33% inhibition)

Need NAMPT Inhibition Code, item CCC(=O)N(C)c1ccc(-c2ccc(C(=O)NCc3cccnc3Cl)cn2)cc1 [Compound I-395]
A (A = <33% inhibition)

* * *

Tested on: MV-4-11 cells
protocol_summary: Cell viability in MV-4-11 cells (CellTiter Glo2)
Type: cell-based
condition_info: Homo sapiens, MV4-11, 96 h, 8-point dose response, 4 days, CellTiter Glo2 (Table E1), read-out: MV-4-11 IC50
value_kind: IC50 (µM)

// known answers, use as guide
CCC(=O)N(C)c1ccc(-c2ccc(C(=O)NCc3ccc(C)nc3C)cn2)cc1 ... 3.52
CCN(C(C)=O)c1ccc(-c2ccc(C(=O)NCc3cccnc3)cn2)cc1C ... 0.267
CCCN(C(=O)CC)c1ccc(-c2ccc(C(=O)NCc3cccnc3)cn2)cc1 ... 0.119
CC(=O)N(CC1CC1)c1ccc(-c2ccc(C(=O)NCc3cccnc3)cn2)cc1 ... 0.117
CCC(=O)N(C)c1ccc(-c2ccc(C(=O)NCc3ccc(F)nc3C)cn2)cc1 ... 4.26
CCN(C(C)=O)c1ccc(-c2ccc(C(=O)NCc3cccnc3C)cn2)cc1C ... 4.03

[I] CC(=O)N(C)c1ccc(-c2ccc(C(=O)NCc3cccnc3C)cn2)cc1C
[II] CCCN(C(C)=O)c1ccc(-c2ccc(C(=O)NCc3cccnc3C)cn2)cc1C
Hi! Which is lower in terms of IC50, the first one I or the second one II ? // output: label of the selected item
II

* * *

test_target: NAMPT (Homo sapiens)
Construct: purchased Abcam ab221819
protocol_summary: NAMPT Activity Assay (Abcam #ab221819)
Assay type: biochemical
condition_info: purified NAMPT, two-step reaction, OD450 nm; percent inhibition vs no drug; compound concentration not stated
value_kind: NAMPT Inhibition Code

Observe how each entry below is paired with its result.
CCC(=O)N(C)c1ccc(-c2ccc(C(=O)Nc3nc(C)cs3)cn2)cc1 ... A (A = <33% inhibition)
COC(=O)NCCN(C(C)=O)c1ccc(-c2ccc(C(=O)NCc3cccnc3C)cn2)cc1C ... A (A = <33% inhibition)
CC(=O)N(CC1CC1)c1ccc(-c2ccc(C(=O)NCc3ccc4nccn4c3)cn2)cc1Cl ... C (C = ≥66% inhibition)
CC(=O)N(CC(C)C)c1ccc(-c2ccc(C(=O)NCc3cccnc3C)cn2)cc1Cl ... A (A = <33% inhibition)
CC(=O)N(CC(C)C)c1ccc(-c2ccc(C(=O)NCc3cccnc3C)cn2)cc1 ... A (A = <33% inhibition)

# lookup: NAMPT Inhibition Code of "CC(=O)N(CCC(F)(F)F)c1ccc(-c2ccc(C(=O)NCc3cccnc3C)cn2)cc1"
A (A = <33% inhibition)
